- procedure_text: The drug is tested on WLS-350 corresponding to human gut metagenome with ENA study accession number: PRJEB37062 and ENA sample accession number: ERS12561789 for biotransformation under anaerobic condition. The drug concentrations were measured over 9 timepoints collected between 0 and 24 hours of incubation by liquid-chromatography-coupled mass spectrometry (LC–MS); note: call rule not given here
- run_conditions: 2 µM
attribute_measured: Bacterial Biotransformation

>>> measurement("N#Cc1ccc(C(c2ccc(C#N)cc2)n2cncn2)cc1")
"Compound NOT metabolized"
>>> measurement("CN1C[C@H](C(=O)N[C@]2(C)O[C@@]3(O)[C@@H]4CCCN4C(=O)[C@H](Cc4ccccc4)N3C2=O)C=C2c3cccc4[nH]cc(c34)C[C@H]21.CN1C[C@H](C(=O)N[C@]2(C)O[C@@]3(O)[C@@H]4CCCN4C(=O)[C@H](Cc4ccccc4)N3C2=O)C=C2c3cccc4[nH]cc(c34)C[C@H]21.O=C(O)C(O)C(O)C(=O)O [ERGOTAMINE TARTRATE]")
"Compound metabolized"
>>> measurement("CC(=O)OCC(=O)[C@@]12N=C(C)O[C@@H]1C[C@H]1[C@@H]3CCC4=CC(=O)C=C[C@]4(C)[C@H]3[C@@H](O)C[C@@]12C")
"Compound metabolized"
>>> measurement("CCOC(=O)[C@H](CCc1ccccc1)N[C@@H](C)C(=O)N1[C@H](C(=O)O)C[C@@H]2CCC[C@@H]21")
"Compound metabolized"
>>> measurement("COC1=CC(=O)C[C@@H](C)[C@]12Oc1c(Cl)c(OC)cc(OC)c1C2=O")
"Compound NOT metabolized"
>>> measurement("CC(C)OC(=O)C(C)(C)Oc1ccc(C(=O)c2ccc(Cl)cc2)cc1 [FENOFIBRATE]")
"Compound NOT metabolized"
>>> measurement("CCC(=O)NCC[C@@H]1CCc2ccc3c(c21)CCO3")
"Compound metabolized"
>>> measurement("CCC(COC(=O)c1cc(OC)c(OC)c(OC)c1)(c1ccccc1)N(C)C.O=C(O)/C=C\\C(=O)O (stereo not drawn)")
"Compound NOT metabolized"

All values here come from ChEMBL document CHEMBL5724914.
